- TARGET_SYSTEM: HDAC 1 (Homo sapiens, UniProt Q13547)
- Sequence (Q13547 whole entry, species assumed): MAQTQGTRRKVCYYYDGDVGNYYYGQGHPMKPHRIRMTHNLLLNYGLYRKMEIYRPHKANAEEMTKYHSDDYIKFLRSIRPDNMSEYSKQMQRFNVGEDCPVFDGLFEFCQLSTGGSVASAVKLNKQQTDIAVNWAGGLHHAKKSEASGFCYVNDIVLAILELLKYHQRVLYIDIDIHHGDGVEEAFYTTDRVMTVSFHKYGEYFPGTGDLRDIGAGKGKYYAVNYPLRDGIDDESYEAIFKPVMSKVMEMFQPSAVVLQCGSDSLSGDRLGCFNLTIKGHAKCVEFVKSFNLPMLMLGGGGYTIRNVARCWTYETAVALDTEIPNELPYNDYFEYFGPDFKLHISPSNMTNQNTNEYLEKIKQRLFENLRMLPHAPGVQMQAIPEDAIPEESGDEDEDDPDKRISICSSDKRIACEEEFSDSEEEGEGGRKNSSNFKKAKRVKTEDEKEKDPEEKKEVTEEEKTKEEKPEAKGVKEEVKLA
- PROTOCOL_NOTES: HDAC 1 inhibition assay with about 3 hours enzyme/compound preincubation (fluorophore/quencher peptide substrate)
- Type: biochemical
- CONDITION_NOTES: 3-hour preincubation of enzyme with compound; read-out: HDAC 1 inhibitory activity (IC50 [μM]) (3-hour preincubation)
Readings of IC50 for the listed compounds
QUANTITY: IC50 (µM)

1) Cc1nc2ccccn2c1-c1ccnc(Nc2csc(C(=O)NO)c2)n1 [Example 71] = 0.185
2) Cc1nc2ccccn2c1-c1ccnc(Nc2ccc(C(=O)NO)c(F)c2)n1 [Example 35] = 0.128
3) Cc1nc2ccccn2c1-c1ccnc(Nc2ccc(C(=O)NO)cc2)n1 [Example 1] = 0.067
4) Cc1nc2ccccn2c1-c1ccnc(Nc2cc(C(=O)NO)cs2)n1 [Example 60] = 0.164
5) O=C(NO)c1ccc(Nc2nccc(-c3cnc4ccccn34)n2)cc1 [Example 5] = 0.02
6) Cc1nc2ccccn2c1-c1ccnc(Nc2ccc(C(=O)Nc3ccccc3N)cc2F)n1 [Example 34] = 1.56
7) Cc1nc2ncccn2c1-c1ccnc(Nc2ccc(C(=O)NO)cc2)n1 [Example 21] = 0.289
8) Cc1nc2ccccn2c1-c1ccnc(Nc2cnc(C(=O)NO)cn2)n1 [Example 67] = 0.169
9) Cc1nc2ccc(C(=O)N3CCN(C)CC3)cn2c1-c1ccnc(Nc2ccc(C(=O)Nc3ccccc3N)cc2)n1 [Example 39] = 0.563
10) Cc1nc2ccc(C(F)(F)F)cn2c1-c1ccnc(Nc2ccc(C(=O)NO)cc2)n1 [Example 11] = 0.089
11) COCCOc1ccc2nc(C)c(-c3ccnc(Nc4ccc(C(=O)Nc5ccccc5N)cc4)n3)n2c1 [Example 41] = 0.877
12) COc1ccc2nc(C)c(-c3ccnc(Nc4ccc(C(=O)NO)cc4)n3)n2c1 [Example 43] = 0.14
13) COc1ccn2c(-c3ccnc(Nc4ccc(C(=O)NO)cn4)c3)c(C)nc2c1 [Example 77] = 0.18
14) Cc1nc2cc(C(=O)N3CCN(C)CC3)ccn2c1-c1ccnc(Nc2ccc(C(=O)Nc3ccccc3N)cc2)n1 [Example 27] = 0.374
15) Cc1nc2ccccn2c1-c1ccnc(Nc2ncc(C(=O)NO)s2)n1 [Example 65] = 0.109
16) Nc1ccccc1NC(=O)c1ccc(Nc2nccc(-c3c(C(F)(F)F)nc4ccccn34)n2)cc1 [Example 16] = 0.295
17) Cc1nc2ncccn2c1-c1ccnc(Nc2ccc(C(=O)Nc3ccccc3N)cc2)n1 [Example 22] = 0.071
